Could you please report measured pEC50 for the items listed next?
assayInfo: Inhibition of HCV genotype 1b NS5B polymerase infected in human HuH7 replicon cells by luciferase reporter gene assay
Answers are plain numbers, as −log10 of the molar value.

Consider the reported pEC50 for these compounds:
compound | pEC50
CNC(=O)c1c(-c2ccc(F)cc2)oc2cc(N(CCO)S(C)(=O)=O)c(C3CC3)cc12 [HCV 796] | 7.92
CNC(=O)c1c(-c2ccc(F)cc2)oc2cc3c(cc12)[C@H](C)O[C@H](CS(C)(=O)=O)CN3S(C)(=O)=O | 8.52
CNC(=O)c1c(-c2ccc(F)cc2)oc2cc3c(cc12)[C@H](C)OCCN3S(C)(=O)=O | 8.52
CNC(=O)c1c(-c2ccc(F)cc2)oc2cc3c(cc12)C(C)OCC(CS(C)(=O)=O)N3S(C)(=O)=O (configuration not stated) | 7.72
CNC(=O)c1c(-c2ccc(F)cc2)oc2cc3c(cc12)C(C)OC(CS(C)(=O)=O)CN3S(C)(=O)=O (configuration not stated) | 8.15

Fill in pEC50 for each of the 4 compounds listed.
1. CNC(=O)c1c(-c2ccc(F)cc2)oc2cc3c(cc12)[C@@H](C)O[C@@H](CS(C)(=O)=O)CN3S(C)(=O)=O
2. CNC(=O)c1c(-c2ccc(F)cc2)nn2cc3c(cc12)C(C)CCCN3S(C)(=O)=O (configuration not stated)
3. CNC(=O)c1c(-c2ccc(F)cc2)oc2cc3c(cc12)C(C)N(C)C(=O)CN3S(C)(=O)=O (configuration not stated)
4. CNC(=O)c1c(-c2ccc(F)cc2)oc2cc3c(cc12)[C@@H](C)N(C)C(=O)CN3S(C)(=O)=O

Reply |
1. 5.92
2. 6.96
3. 7.77
4. 7.23

Fill in pEC50 for each of the 7 compounds listed.
1. CNC(=O)c1c(-c2ccc(F)cc2)oc2cc3c(cc12)C(C)n1ccnc1CN3S(C)(=O)=O (configuration not stated)
2. CNC(=O)c1c(-c2ccc(F)cc2)oc2cc3c(cc12)C(C)N(C)CCN3S(C)(=O)=O (configuration not stated)
3. CNC(=O)c1c(-c2ccc(F)cc2)oc2cc3c(cc12)[C@H](C)O[C@@H](CO)CN3S(C)(=O)=O
4. CNC(=O)c1c(-c2ccc(F)cc2)oc2cc3c(cc12)[C@H](C)N(C)C(=O)CN3S(C)(=O)=O
5. CNC(=O)c1c(-c2ccc(F)cc2)oc2cc3c(cc12)C(=O)CCCN3S(C)(=O)=O
6. CNC(=O)c1c(-c2ccc(F)cc2)oc2cc3c(cc12)C1CC1CCN3S(C)(=O)=O (configuration not stated)
7. CNC(=O)c1c(-c2ccc(F)cc2)oc2cc3c(cc12)[C@@H](C)O[C@H](CS(C)(=O)=O)CN3S(C)(=O)=O

Reply |
[7.13, 7.85, 7.89, 7.89, 7.11, 8.05, 7.62]

Ask | Entry under review: CNC(=O)c1c(-c2ccc(F)cc2)oc2cc3c(cc12)C(C)OCCN3S(C)(=O)=O (configuration not stated) . Reported pEC50?
Reply | 7.96

The values you see were collected from BindingDB's records for doi:10.1016/j.bmcl.2018.01.029.
